test system: CD2F1 mice, L1210 leukemia ip, survival T/C; test: NCI In Vivo Anticancer Drug Screen. Data for tumor model L1210 Leukemia (intraperitoneal) in CD2F1 (CDF1) mice; settings: endpoint: mean survival time; dose: 400.0 mg/kg/injection; schedule: Q04DX003 (ip); vehicle: saline with Tween-80; higher = longer survival
Toxic doses and inconclusive results are not listed.
property-label: T/C

Guide cases for T/C, answers given:
CCCCOC(=O)C(C)(C)O :: 98 % of control
COc1ccc(NC(=O)Nc2ccccc2C(F)(F)F)cc1 :: 90 % of control
CC(=O)C1C(=O)CC(C)(O)C(C(C)=O)C1c1ccccc1 (configuration not stated) :: 103 % of control
Cc1c(Cc2ccccc2)[n+](=O)c2ccccc2n1[O-] :: 98 % of control
O=S(=O)(OCCOC(c1ccccc1)(c1ccccc1)c1ccccc1)c1ccc(Br)cc1 :: 98 % of control

Value sought for every listed compound: T/C.
1. O=C(O)c1cc([N+](=O)[O-])ccc1Br
2. Cc1cc[n+]([O-])c(N(C(=O)c2ccccc2)C(=O)c2ccccc2)c1

1: 95 % of control; 2: 97 % of control
